Source listed as PubChem BioAssay AID1845199.

# System: 556581-035-R-J1 tumor spheroid viability, % test/control;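 note: spheroids exposed to compounds for 7 days before viability read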
# Experiment: Anticancer human tumor 556581-035-R-J1 patient-derived ovarian carcinoma cell line growth inhibition; active = viability on the fitted dose curve at most 10% of control; inactive = the rest
# Test conditions: second compound 0.003 µM; first compound 3.16 µM; spheroids with HUVEC and MSC
Your answer must be one of the following: t = active, f = inactive

Input line: Record lookup: outcome of this test for [2H]c1nc(C)nc([2H])c1-c1cc(NC[C@@H](C)c2cccc3c(C(=O)NC)ccnc23)ncn1 + COc1cc2c(cc1O)CCNC21CSC2c3c(OC(C)=O)c(C)c4c(c3C(COC1=O)N1C(O)C3Cc5cc(C)c(OC)c(O)c5C(C21)N3C)OCO4 ?
Output line: t

Input line: State the result this test recorded for COc1cc(C)[nH]c(=O)c1CN1CCc2c(Cl)cc(C(OC)C3COC3)c(Cl)c2C1=O (centres undefined) + COc1cc2c(cc1O)CCNC21CSC2c3c(OC(C)=O)c(C)c4c(c3C(COC1=O)N1C(O)C3Cc5cc(C)c(OC)c(O)c5C(C21)N3C)OCO4 .
Output line: t

Input line: Assay outcome for Cc1cc(C)c(CNC(=O)c2cc(-c3ccc(CN4CCOCC4)cc3)cc3c2cnn3C2CCCC2)c(=O)[nH]1 + CC[C@@]1(O)C(=O)OCc2c1cc1n(c2=O)Cc2cc3c(CN(C)C)c(O)ccc3nc2-1 : what was it?
Output line: f

Input line: // param item: CC1COCCN1c1cc(-c2ccnn2C)c2ccnc(-c3ccn[nH]3)c2n1 (centres undefined) + COc1cc2c(cc1O)CCNC21CSC2c3c(OC(C)=O)c(C)c4c(c3C(COC1=O)N1C(O)C3Cc5cc(C)c(OC)c(O)c5C(C21)N3C)OCO4 ; yields the recorded call
Output line: t
